SYSTEM NAME: PIK3R1-N SH2 domain (Homo sapiens, UniProt P27986)
Construct: thioredoxin; made in house; host or cells: E. coli BL21(DE3)pLysS
Sequence (P27986 333-428 limits assumed): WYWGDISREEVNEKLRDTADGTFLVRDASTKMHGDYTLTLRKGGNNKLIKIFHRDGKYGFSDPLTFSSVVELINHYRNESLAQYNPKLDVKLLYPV
TEST: biochemical
Assay type: binding
ASSAY CONTEXT: protein PIK3R1-N; FP, high-confidence ErbB interactions; mean of replicate hits
Residues, ends and D or L forms follow the SMILES beside them.
RESULT TYPE: Kd
Provide the measurement as a number trailed by its unit.

Lookup: Please indicate Kd recorded for CSCC[C@H](NC(=O)[C@H](C)NC(=O)[C@H](C)NC(=O)[C@H](Cc1ccc(OP(=O)(O)O)cc1)NC(=O)[C@H](CC(=O)O)NC(=O)CNC(=O)CNC(=O)[C@@H]1CCCN1)C(=O)NCC(=O)N[C@@H](C)C(=O)N[C@@H](CS)C(=O)N1CCC[C@H]1C(=O)N[C@@H](CC(=O)O)C(=O)O [ErbB3 1276 13-mer] (HELM PEPTIDE1{P.G.G.D.[O=C([C@H](Cc1ccc(OP(=O)(O)O)cc1)N[*:1])[*:2]].A.A.M.G.A.C.P.D}$$$$V2.0)
Found: 6 µM

* * *

SYSTEM NAME: PLCG1-NC tandem SH2 domains (Homo sapiens)
Construct: the tandem protein was included in our analysis with all internal amino acids linking the domains; 6X His; thioredoxin; made in house; host or cells: E. coli BL21(DE3)pLysS
Sequence (P19174 550-756 limits assumed): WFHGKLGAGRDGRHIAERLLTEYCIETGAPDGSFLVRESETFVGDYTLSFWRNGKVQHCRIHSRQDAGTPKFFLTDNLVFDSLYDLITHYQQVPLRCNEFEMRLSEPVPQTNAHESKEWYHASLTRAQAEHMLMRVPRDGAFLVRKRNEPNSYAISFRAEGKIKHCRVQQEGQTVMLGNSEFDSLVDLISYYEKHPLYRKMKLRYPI
TEST: FP saturation binding assay
ASSAY CONTEXT: Protein PLCG1-NC; FP saturation binding, high-confidence ErbB interactions; mean over replicate hits
Residues, ends and D or L forms follow the SMILES beside them.
RESULT TYPE: pKd
// pKd here means minus log10 of the molar concentration (mol/L)

1) CC(C)C[C@H](NC(=O)[C@H](Cc1ccc(OP(=O)(O)O)cc1)NC(=O)[C@H](CCC(=O)O)NC(=O)[C@H](CCC(=O)O)NC(=O)[C@H](C)NC(=O)[C@@H](N)CC(=O)O)C(=O)N[C@H](C(=O)N1CCC[C@H]1C(=O)N[C@@H](CCC(N)=O)C(=O)N[C@@H](CCC(N)=O)C(=O)NCC(=O)N[C@@H](Cc1ccccc1)C(=O)N[C@@H](CC(=O)O)C(=O)O)C(C)C [ErbB2 1023 13-mer] (HELM PEPTIDE1{D.A.E.E.[O=C([C@H](Cc1ccc(OP(=O)(O)O)cc1)N[*:1])[*:2]].L.V.P.Q.Q.G.F.D}$$$$V2.0) :: 5.89
2) CC(C)[C@H](NC(=O)[C@H](CC(=O)O)NC(=O)[C@@H]1CCCN1C(=O)[C@H](CCC(N)=O)NC(=O)[C@H](CC(N)=O)NC(=O)[C@@H](NC(=O)[C@H](Cc1ccc(OP(=O)(O)O)cc1)NC(=O)[C@H](CCC(=O)O)NC(=O)[C@@H]1CCCN1C(=O)[C@H](CCC(N)=O)NC(=O)[C@@H]1CCCN1)C(C)C)C(=O)N[C@@H](CCCNC(=N)N)C(=O)N[C@@H](CC(=O)O)C(=O)O [ErbB2 1139 13-mer] (HELM PEPTIDE1{P.Q.P.E.[O=C([C@H](Cc1ccc(OP(=O)(O)O)cc1)N[*:1])[*:2]].V.N.Q.P.D.V.R.D}$$$$V2.0) :: 5.47
3) CC(C)C[C@H](NC(=O)CNC(=O)[C@H](CC(C)C)NC(=O)[C@H](Cc1ccc(OP(=O)(O)O)cc1)NC(=O)[C@H](CCC(=O)O)NC(=O)[C@@H]1CCCN1C(=O)[C@H](CC(N)=O)NC(=O)[C@@H](N)CCC(=O)O)C(=O)N[C@@H](CC(=O)O)C(=O)N[C@H](C(=O)N1CCC[C@H]1C(=O)N[C@H](C(=O)N[C@@H](CC(=O)O)C(=O)O)C(C)C)C(C)C [ErbB2 1248 13-mer] (HELM PEPTIDE1{E.N.P.E.[O=C([C@H](Cc1ccc(OP(=O)(O)O)cc1)N[*:1])[*:2]].L.G.L.D.V.P.V.D}$$$$V2.0) :: 5.00
4) CC(C)C[C@H](NC(=O)[C@H](Cc1ccc(OP(=O)(O)O)cc1)NC(=O)[C@H](CCC(=O)O)NC(=O)[C@@H]1CCCN1C(=O)[C@H](CC(N)=O)NC(=O)CN)C(=O)N[C@@H](CC(N)=O)C(=O)N[C@H](C(=O)N[C@H](C(=O)N[C@@H](CCC(N)=O)C(=O)N1CCC[C@H]1C(=O)N[C@H](C(=O)N[C@@H](CC(=O)O)C(=O)O)[C@@H](C)O)C(C)C)[C@@H](C)O [ErbB1 1138 13-mer] (HELM PEPTIDE1{G.N.P.E.[O=C([C@H](Cc1ccc(OP(=O)(O)O)cc1)N[*:1])[*:2]].L.N.T.V.Q.P.T.D}$$$$V2.0) :: 5.27

Lookup: // fetch pKd given entry CC[C@H](C)[C@H](NC(=O)[C@H](Cc1ccc(OP(=O)(O)O)cc1)NC(=O)[C@H](CCC(=O)O)NC(=O)[C@@H]1CCCN1C(=O)[C@@H](NC(=O)[C@@H]1CCCN1)C(C)C)C(=O)N[C@@H](CC(N)=O)C(=O)N[C@@H](CCC(N)=O)C(=O)N[C@@H](CO)C(=O)N[C@H](C(=O)N1CCC[C@H]1C(=O)N[C@@H](CCCCN)C(=O)N[C@@H](CC(=O)O)C(=O)O)C(C)C [ErbB1 1092 13-mer]
Found: 5.12
